# Protocol Description: PK protocol, intravenous administration in rats
# Format: in vivo
# Condition Set: rat, plasma, male Sprague Dawley rats, 1 mg/kg
Readout Kind: clearance (mL/min/kg)
Answers are plain numbers, in mL/min/kg.

Record clearance per entry; entries follow.
1. COc1cc(-c2ccc3c(c2CC(=O)NS(=O)(=O)c2ccc(C(C)(C)O)cc2C)CCC3)ccn1
2. COc1cc(-c2cc(F)cc(C(C)C)c2CC(=O)NS(=O)(=O)c2ccc(C(C)C)cc2)ccn1

Result:
1. 29.1
2. 13.3

----------
Please go through the items and note down their AUC.
# Protocol Description: PK protocol, intravenous administration in rats
# Format: in vivo
# Condition Set: rat, plasma, male Sprague Dawley rats, 1 mg/kg
Numbers only, in ng·h/mL.

1) COc1cc(-c2ccc3c(c2CC(=O)NS(=O)(=O)c2ccc(C(C)(C)O)cc2C)CCC3)ccn1; 926

Alright, here's another compound for you.
Ask: # lookup: AUC of COc1cc(-c2cc(F)cc(C(C)C)c2CC(=O)NS(=O)(=O)c2ccc(C(C)C)cc2)ccn1
Result: 1260
